Listing of recorded Kd by entry.
- measured-on: biotinylated MDM2 truncate (residues 10-118) (UniProt Q00987 10-118, biotin (NHS-PEG4-Biotin))
- Sequence (Q00987 10-118): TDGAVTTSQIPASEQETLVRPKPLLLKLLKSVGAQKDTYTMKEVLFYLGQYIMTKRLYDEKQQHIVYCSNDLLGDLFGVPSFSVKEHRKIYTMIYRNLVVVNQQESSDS
- test-summary: BLI
Numbered stars: 1 amine (or outer) side, 2 acyl side, 3 side chain; on linkers, the order of the positions; unused ones are H or OH. Bridge positions count the residues as written; N and C are the ends. Square brackets hold non-standard residues; d marks the D form. Ends that are not written are not given here. Bis(1,2,3triazol4ylCH2)ether = c1c(COCc2cn([*:2])nn2)nnn1[*:1]; Aha = [N-]=[N+]=NCC[C@H](N)C(=O)O
Provide the reading as a plain figure in nM.

Sample answers from the record:
> print(dat)
                                     binder  reported
1  GGTF[Aha]GYWADL[Aha]AF-NH2 [SPD-M3-G1, synthetic, non-stabilized]        21
2  VLSF[Aha]DYWNLL[Aha]GS-NH2 [SPD-M3-V1, synthetic, non-stabilized]       131
3  GGTF[Aha]GYWADL[Aha]AF-NH2 (triazole 5-12 via Bis(1,2,3triazol4ylCH2)ether) [SPD-M3-G1, synthetic, stabilized]       5.1

Data request: Please give the measured Kd for this binder: VLSF[Aha]DYWNLL[Aha]GS-NH2 (triazole 5-12 via Bis(1,2,3triazol4ylCH2)ether) [SPD-M3-V1, synthetic, stabilized]
Data returned: 14
